Ref: PubChem BioAssay (NCI)

test system: OVCAR-3 ovarian; test: NCI tumour cell line growth inhibition, 48 h
# cutoff 4 µM applies to TGI; >= gives label 1, < gives label 0

### Prompt Decide: TGI of COc1ccc(C(C)NNC(=O)c2ccncc2)c(OC)c1 (stereo not given) >= 4 µM?
### Response label 1

### Prompt Reported TGI reaches at least 4 µM for `N#C/C(C(=O)Nc1ccccc1)=C(/N)N1CCOCC1` ?
### Response label 1

### Prompt Answer whether TGI of `O=[N+]([O-])c1ccc(Cl)c(C=NC23CC4CC(CC(C4)C2)C3)c1` is greater than or equal to 4 µM.
### Response label 1

====

test system: MDA-MB-231 breast; test: NCI tumour cell line growth inhibition, 48 h
Hi there, I'd appreciate the recorded GI50 for every entry that follows.

Worked set:
{"columns": ["molecule", "GI50"],
 "data": [
  ["Oc1ccc(Cl)cc1Cc1cc(Cl)cc(Cl)c1O", "7.92 µM"],
  ["Cc1c2cccnc2c(C)c2c1c1cc(CO)ccc1n2C", "2.61 µM"],
  ["C=CC1CC12C(=O)C1OC2(C)C2C(=O)c3cc4ccccc4cc3C(=O)C12 (stereo unspecified)", "16 µM"],
  ["OCCN1CN(CCO)CN(c2nc(N3CN(CCO)CN(CCO)C3)nc(N3CN(CCO)CN(CCO)C3)n2)C1", "0.776 ng/mL"],
  ["O=[N+]([O-])c1ccc(C=C2C(Cl)=C(Cl)C(Cl)=C2Cl)cc1", "3.39 µM"]
]}

### Prompt Request the reported GI50 associated with `O=C1NC(=Nc2ccccc2)S/C1=C\c1ccc2ncccc2c1`
### Response > 25 µM

====

test system: KM12 colon; test: NCI tumour cell line growth inhibition, 48 h; in the data active means GI50 below about 0.43 µM; inactive means the rest
Valid outcomes are listed here; reply with one: Y = active, N = inactive

Would you please look over these solved cases?
{"columns": ["compound", "measured_target", "category_label"],
 "data": [
  ["C[C@H]1c2cccc(O)c2C(O)=C2C(=O)[C@]3(O)C(O)=C(C(N)=O)C(=O)[C@@H](N(C)C)[C@@H]3[C@@H](O)[C@@H]21", "KM12 colon", "N"],
  ["O=S(=O)([O-])c1ccc2c(c1)-c1nc-2nc2[n-]c(nc3nc(nc4[n-]c(n1)c1ccc(S(=O)(=O)[O-])cc41)-c1cc(S(=O)(=O)[O-])ccc1-3)c1ccc(S(=O)(=O)[O-])cc21.[Cu+2].[Na+]", "KM12 colon", "N"],
  ["COCCOc1cc(F)c2c(Nc3ccc(NC(=O)Cn4cc(C(C)C)nn4)cc3)ncnc2c1", "KM12 colon", "N"],
  ["COc1cc(C(=O)c2cc(C)c3[nH]c4ccc(Cl)cc4c3c2C)cc(OC)c1OC", "KM12 colon", "Y"],
  ["C=C(C)[C@@]12OC3(/C=C/C=C/CCCCC)O[C@@H]1[C@@H]1[C@@H]4O[C@]4(CO)[C@@H](O)[C@]4(O)C(=O)C(C)=C[C@H]4[C@@]1(O3)[C@H](C)[C@H]2OC(=O)c1ccccc1", "KM12 colon", "N"]
]}

### Prompt Just curious, what result did Cc1ccc(C(SCC(N)C(=O)O)(c2ccccc2)c2ccc(C)cc2)cc1 (stereo not drawn) get here?
### Response Y

### Prompt Please share the test call associated with `CC/C(=C(/c1ccc(OCCN(C)C)cc1)c1ccc(OC(=O)CCCCC(=O)c2c(C)[nH]c(/C=C3\N=C(c4ccc[nH]4)C=C3OC)c2C)cc1)c1ccccc1` .
### Response N

### Prompt What did this assay record as the result for `Clc1ccc2c(NCCCNc3nccc(Nc4ccc(Br)cc4)n3)ccnc2c1` ?
### Response N

### Prompt Tell me the recorded outcome of this test for `CC(=O)O.CC(=O)O.CC(=O)O.CC(=O)O.CC(=O)O.CC(=O)O.O.[Ti].[Ti]` .
### Response N

### Prompt Could you kindly confirm the outcome this assay logged for `O=C(c1ccccc1)c1cc(Cl)ccc1OCCCCN1CCN(CCCCOc2ccc(Cl)cc2C(=O)c2ccccc2)CC1` ?
### Response N

### Prompt For this compound, state the assay outcome: CC(C)(C)C(=O)OCOP(=O)(OCOC(=O)C(C)(C)C)C1CCCN(O)C1=O (stereo not drawn)
### Response N

### Prompt Recorded call for C=C(C=O)C1CCC2(C(=O)O)CCC3(C)C(CCC4C5(C)CCC(O)C(C)(C)C5CCC43C)C12 (stereo not drawn) ?
### Response N

### Prompt Record lookup: outcome of this test for `Oc1ccc(Cl)cc1Cc1cc(Cl)cc(Cl)c1O` ?
### Response N

### Prompt Please state the recorded outcome for this compound: `Ic1ccc(Nc2nc3nonc3nc2Nc2ccc(I)cc2)cc1`
### Response Y

### Prompt Test call, this compound: `COC(=O)/C=C/c1cc(O)c2oc(-c3ccc(O)c(O)c3)c(C(=O)OC)c2c1`
### Response N

====

Can you tell me TGI for the items I'm about to list?
tested on: RXF 393 renal; experiment: NCI tumour cell line growth inhibition, 48 h
Numbers only, in µM.

Here are 4 molecules together with their reported answers.
{"columns": ["compound_string", "TGI, µM"],
 "data": [
  ["O=[N+]([O-])c1ccc(/C=N/n2c(CO)nc3ccccc32)o1", 18.3],
  ["O=C(c1ccccc1)c1cc(Cl)ccc1OCCCCN1CCN(CCCCOc2ccc(Cl)cc2C(=O)c2ccccc2)CC1", 5.08],
  ["Cc1ccc(S(=O)(=O)N/N=C/C(=C/c2ccc(Cl)cc2)CC(/C=N/NS(=O)(=O)c2ccc(C)cc2)=C\\c2ccc(Cl)cc2)cc1", 7.38],
  ["C=C(C)[C@@]12OC3(/C=C/C=C/CCCCC)O[C@@H]1[C@@H]1[C@@H]4O[C@]4(CO)[C@@H](O)[C@]4(O)C(=O)C(C)=C[C@H]4[C@@]1(O3)[C@H](C)[C@H]2OC(=O)c1ccccc1", 3.49]
]}

Next, consider the following molecule.
### Prompt Requested read-out: TGI. Entry: `C#Cc1cccc(Nc2ncnc3cc(OC)c(OCCCCCCC(=O)NO)cc23)c1`
### Response 0.367

====

tested on: NCI-H23 lung; test: NCI tumour cell line growth inhibition, 48 h
metric_name: TGI

{"columns": ["molecule", "measured_target", "metric_name", "measured_value"],
 "data": [
  ["O=C1OC(c2ccccc2)=N/C1=C/C=C/c1ccco1", "NCI-H23 lung", "TGI", "> 100 µM"]
]}

Look up TGI for the entries below, preserving their order.
1. COc1ccc(C(C)NNC(=O)c2ccncc2)c(OC)c1 (stereo not given)
2. NC(=O)C(N)Cc1ccc(O)cn1 (stereo not given)
3. COC(=O)C(C)(NC(=O)C(CC(=O)OC(C)(C)C)NC(=O)OC(C)(C)C)c1ccccc1 (stereo not given)
4. COC(=O)Cc1cc(O)c(C/C=C(\C)CC/C=C(\C)C(O)C(=O)C=C(C)C)cc1O (stereo not given)
5. C=CC(Br)(CBr)CCC(Cl)C(C)C (stereo not given)
6. O=C(CC(=O)Nc1cccc(C(=O)O)c1)Nc1cccc(C(=O)O)c1

### Response
["> 100 µM", "> 100 µM", "> 100 µM", "93.3 µM", "8.82 µM", "> 100 µM"]

Please report TGI for every entry that follows.
1. CCCCCN=Cc1c(O)c(O)c(C(C)C)c2cc(C)c(-c3c(C)cc4c(C(C)C)c(O)c(O)c(C=NCCCCC)c4c3O)c(O)c12
2. CCCCOC(=O)C1C(c2ccc(Cl)cc2)NC(c2ccc(Cl)cc2)C(C(=O)OCCCC)S1(=O)=O (stereo not given)
3. CCc1nc(N)nc(N)c1-c1ccc2nn(-c3ccccc3)[n+]([O-])c2c1

### Response
1: > 100 µM; 2: > 100 µM; 3: 18.2 µM

====

Exercise: state measured TGI for each of the compounds provided.
test system: K-562 leukemia; test: NCI tumour cell line growth inhibition, 48 h

For every item in the list below, what is its measured TGI?
1. S=C(c1c[nH]c2ccccc12)N1CCOCC1
2. COc1ccc(C2S/C(=C\c3ccccc3O)C(=O)N2NC(=O)Cc2ccccc2)cc1 (stereo not drawn)
3. C=C(C)[C@@]12OC3(/C=C/C=C/CCCCC)O[C@@H]1[C@@H]1[C@@H]4O[C@]4(CO)[C@@H](O)[C@]4(O)C(=O)C(C)=C[C@H]4[C@@]1(O3)[C@H](C)[C@H]2OC(=O)c1ccccc1
4. O=C(CCCn1ccnc1[N+](=O)[O-])NCCn1cncc1[N+](=O)[O-]
5. C=C(CCCCC)CN1CCCC1[C@@](C)(O)CC(=O)OCC (stereo partly drawn)

### Response
1: > 100 µM; 2: > 100 µM; 3: 1.87 µM; 4: > 100 µM; 5: > 100 µM

====

Provide the recorded TGI for the entries that follow.
system: OVCAR-3 ovarian; experiment: NCI tumour cell line growth inhibition, 48 h

Solved entries (count: 6):
{"columns": ["compound", "metric_name", "measured_value"],
 "data": [
  ["CNCCCn1cc(C2=C(c3cn(C)c4ccccc34)C(=O)NC2=O)c2ccccc21", "TGI", "13.8 µM"],
  ["O=C(OCc1ccc2cccc(O)c2n1)N1CCN(C(=O)c2cc3cc(F)ccc3[nH]2)CC1", "TGI", "1.77 µM"],
  ["CC(=O)O.CC(=O)O.CC(=O)O.CC(=O)O.CC(=O)O.CC(=O)O.O.[Ti].[Ti]", "TGI", "> 100 µM"],
  ["CCc1nc(N)nc(N)c1-c1ccc2nn(-c3ccccc3)[n+]([O-])c2c1", "TGI", "28.3 µM"],
  ["Cc1ccc(SC(C)/C=C/NNC2=NC(c3ccccc3)C(c3ccccc3)=NN2)cc1 (stereo not drawn)", "TGI", "> 100 µM"],
  ["O=c1nc2occc2cn1C1CC(O)C(CO)O1 (stereo not drawn)", "TGI", "> 100 µM"]
]}

Hello, I would appreciate it if you could give TGI for each entry below.
1. CC1(CCCO)CCCCCC(C)(CCCO)C1=O (stereo not drawn)
2. COC(C)(C)C1=CCC(C)CC1 (stereo not drawn)

### Response
1: > 100 µM; 2: > 100 µM
